Each record here notes measured growth inhibition.
# PROCEDURE DETAILS: NCI Yeast Anticancer Drug Screen. Data for the rad50 strain (AID 155);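 further: 0% = growth of vehicle-only cultures of the same strain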
# CONDITION CONTEXT: S. cerevisiae rad50 strain growth inhibition; at 50.0 µM; stronger effect = higher value
Compounds without any hit were thinned out: in the full panel of roughly 79,000, 15% have a hit.
VALUE TYPE: growth inhibition (%)

CS(=O)(=O)C(CCC(=O)C(c1ccccc1)c1ccccc1)C(=O)c1ccccc1 (stereo unspecified)
-7.7
COc1ccccc1/C(=N\OCCC(=O)O)c1cccs1
2.15
CC(=O)OC1COC([n+]2cccc(C(N)=O)c2)C(OC(C)=O)C1OC(C)=O (stereo unspecified)
-36.5
Oc1ccccc1C=Nc1ccc(N2CCOCC2)cc1
2.65
CCOC(=O)N1Cc2cc3ccc(OC)cc3nc2C1
6
O=C1C2(CCCC13OC3c1ccccc1)OC2c1ccccc1 (stereo unspecified)
-20.9

# credit: PubChem BioAssay (NCI)
